Where these numbers come from: paper PMC5700166

Would you kindly list binding signal for each of these sequences?
Biological target: GST-Ap-NF-kB RHD (Exaiptasia pallida (Aiptasia), UniProt A0A913YAJ5 2-422)
Sequence: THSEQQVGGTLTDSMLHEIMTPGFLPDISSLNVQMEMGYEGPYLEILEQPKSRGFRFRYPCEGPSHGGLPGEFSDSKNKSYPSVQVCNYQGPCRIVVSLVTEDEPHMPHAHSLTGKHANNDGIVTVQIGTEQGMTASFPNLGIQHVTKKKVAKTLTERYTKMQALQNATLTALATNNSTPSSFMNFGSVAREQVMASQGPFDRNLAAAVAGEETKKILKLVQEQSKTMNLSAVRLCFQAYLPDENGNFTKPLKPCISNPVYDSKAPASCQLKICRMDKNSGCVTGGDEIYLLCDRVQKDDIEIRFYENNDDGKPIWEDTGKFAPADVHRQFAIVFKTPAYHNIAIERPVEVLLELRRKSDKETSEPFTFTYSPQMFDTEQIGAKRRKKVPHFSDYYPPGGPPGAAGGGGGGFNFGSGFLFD
Assay: protein-binding microarray (PBM); PBM: ~300 nM protein, 6 mM HEPES pH 7.8, 80 mM KCl, 0.5 mM EDTA, 0.5 mM EGTA, 6% glycerol, 35 ng/ul poly-dIdC, 1% milk, 1 h, room temperature; high values mean tight binding
Conditions: dsDNA, one strand shown
Numbers only here, please. The scale is z-score.

# CCGATTAACATCAGGGGAAGTTATGATGTTAATCGGGTCTTGATTCGCTTGACGCTGCTG with GST-Ap-NF-kB RHD (Exaiptasia pallida (Aiptasia), UniProt A0A913YAJ5 2-422): binding signal is 7.14

# CCGATTAACATCAGGGGAAACTATGATGTTAATCGGGTCTTGATTCGCTTGACGCTGCTG with GST-Ap-NF-kB RHD (Exaiptasia pallida (Aiptasia), UniProt A0A913YAJ5 2-422): binding signal is 6.82

# CCGATTAACATCAGGGGATCCCCTGATGTTAATCGGGTCTTGATTCGCTTGACGCTGCTG with GST-Ap-NF-kB RHD (Exaiptasia pallida (Aiptasia), UniProt A0A913YAJ5 2-422): binding signal is 14.6

# CCGATTAACATCAGGAACGCCCCTGATGTTAATCGGGTCTTGATTCGCTTGACGCTGCTG with GST-Ap-NF-kB RHD (Exaiptasia pallida (Aiptasia), UniProt A0A913YAJ5 2-422): binding signal is 3.09

# CCGATTAACATCACAAAATCCCCTGATGTTAATCGGGTCTTGATTCGCTTGACGCTGCTG with GST-Ap-NF-kB RHD (Exaiptasia pallida (Aiptasia), UniProt A0A913YAJ5 2-422): binding signal is 9.85

###

Would you kindly list binding signal for each of these sequences?
Molecular target: GST-Ap-NF-kB RHD (Exaiptasia pallida (Aiptasia), UniProt A0A913YAJ5 2-422)
Sequence: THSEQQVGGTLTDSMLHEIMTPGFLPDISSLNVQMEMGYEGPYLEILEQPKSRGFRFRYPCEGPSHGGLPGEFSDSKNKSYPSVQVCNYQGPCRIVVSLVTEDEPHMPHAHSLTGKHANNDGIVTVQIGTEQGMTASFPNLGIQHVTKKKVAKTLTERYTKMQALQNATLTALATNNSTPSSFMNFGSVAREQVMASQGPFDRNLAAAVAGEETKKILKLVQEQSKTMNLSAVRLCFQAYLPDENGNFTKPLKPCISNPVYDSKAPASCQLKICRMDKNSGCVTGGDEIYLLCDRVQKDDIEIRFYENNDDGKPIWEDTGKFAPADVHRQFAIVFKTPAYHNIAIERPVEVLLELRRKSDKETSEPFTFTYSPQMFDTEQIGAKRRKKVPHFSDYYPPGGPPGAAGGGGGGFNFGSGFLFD
Experiment: protein-binding microarray (PBM); PBM: ~300 nM protein, 6 mM HEPES pH 7.8, 80 mM KCl, 0.5 mM EDTA, 0.5 mM EGTA, 6% glycerol, 35 ng/ul poly-dIdC, 1% milk, 1 h, room temperature; Ap Aiptasia and Nv Nematostella (sea anemones) / Co Capsaspora / Aq Amphimedon (sponge) / Dm Drosophila / Hu human; RHD is the Rel homology domain; high values mean tight binding
Settings: dsDNA, one strand shown
Numbers only here, please. The scale is z-score.

Lab note: measured binding signal of CCGATTAACATCACTATTTTCCCTGATGTTAATCGGGTCTTGATTCGCTTGACGCTGCTG was 3.72

Lab note: measured binding signal of CCGATTAACATCAAAAAGCCCCGTGATGTTAATCGGGTCTTGATTCGCTTGACGCTGCTG was 6.52

Lab note: measured binding signal of CCGATTAACATCAGGGGATGTACTGATGTTAATCGGGTCTTGATTCGCTTGACGCTGCTG was 4.43

Lab note: measured binding signal of CCGATTAACATCAGGGGAATAAATGATGTTAATCGGGTCTTGATTCGCTTGACGCTGCTG was 6.25

Lab note: measured binding signal of CCGATTAACATCAGGCAGTCCCCTGATGTTAATCGGGTCTTGATTCGCTTGACGCTGCTG was 5.54

Lab note: measured binding signal of CCGATTAACATCAGGGAAATAACTGATGTTAATCGGGTCTTGATTCGCTTGACGCTGCTG was 2.57

Lab note: measured binding signal of CCGATTAACATCAATCCTCCCCCTGATGTTAATCGGGTCTTGATTCGCTTGACGCTGCTG was 5.52

Lab note: measured binding signal of CCGATTAACATCAGGGGGGTATATGATGTTAATCGGGTCTTGATTCGCTTGACGCTGCTG was 5.34

Lab note: measured binding signal of CCGATTAACATCAGCCCCCCGTCTGATGTTAATCGGGTCTTGATTCGCTTGACGCTGCTG was 3.16
